Measured values drawn from paper PMC5937082 for this set.

Assay: Lipophilicity by reversed-phase thin-layer chromatography (RPTLC, RP-18W/UV254 plates)
Format: physicochemical
Details: acetone-water mobile phase, φ = 0.34 - 0.56 v/v, room temperature
measure: m (slope of RM vs φ)

structure_string=O=C(CCl)Nc1cccc(Br)c1 endpoint_result="-3.105 (±0.238)"
structure_string=O=C(CCl)Nc1ccc(F)cc1 endpoint_result="-2.440 (±0.095)"
structure_string=COc1ccc(NC(=O)CCl)cc1 endpoint_result="-2.431 (±0.258)"
structure_string=O=C(CCl)Nc1ccccc1 endpoint_result="-2.225 (±0.285)"
structure_string=N#Cc1cccc(NC(=O)CCl)c1 endpoint_result="-2.278 (±0.218)"
structure_string=O=C(CCl)Nc1ccc(I)cc1 endpoint_result="-3.375 (±0.323)"
structure_string=Cc1ccc(NC(=O)CCl)cc1 endpoint_result="-2.583 (±0.220)"
structure_string=O=C(CCl)Nc1ccc(Br)cc1 endpoint_result="-3.175 (±0.195)"
structure_string=CC(=O)c1ccc(NC(=O)CCl)cc1 endpoint_result="-2.396 (±0.173)"
structure_string=O=C(CCl)Nc1ccc(Cl)cc1 endpoint_result="-2.945 (±0.313)"
structure_string=N#Cc1ccc(NC(=O)CCl)cc1 endpoint_result="-2.033 (±0.263)"
structure_string=O=C(CCl)Nc1ccc(O)cc1 endpoint_result="-1.865 (±0.068)"

====

Experiment: Lipophilicity by reversed-phase thin-layer chromatography (RPTLC, RP-18W/UV254 plates)
Assay type: physicochemical
Conditions: methanol-water mobile phase, φ = 0.34 - 0.56 v/v, room temperature
measure: R M ^0 (chromatographic retention constant, intercept)

molecule="CC(=O)c1ccc(NC(=O)CCl)cc1 [Compound 4COCH3]" endpoint_result="1.275 (±0.121)"
molecule="O=C(CCl)Nc1ccc(I)cc1 [Compound 4I]" endpoint_result="2.124 (±0.122)"
molecule="O=C(CCl)Nc1ccc(O)cc1 [Compound 4OH]" endpoint_result="1.577 (±0.069)"
molecule="O=C(CCl)Nc1ccc(F)cc1 [Compound 4F]" endpoint_result="1.354 (±0.088)"
molecule="Cc1ccc(NC(=O)CCl)cc1 [Compound 4CH3]" endpoint_result="1.542 (±0.067)"
molecule="N#Cc1cccc(NC(=O)CCl)c1 [Compound 3CN]" endpoint_result="1.362 (±0.082)"
molecule="O=C(CCl)Nc1cccc(Br)c1 [Compound 3Br]" endpoint_result="1.958 (±0.115)"
molecule="N#Cc1ccc(NC(=O)CCl)cc1 [Compound 4CN]" endpoint_result="1.382 (±0.039)"
molecule="O=C(CCl)Nc1ccc(Br)cc1 [Compound 4Br]" endpoint_result="1.951 (±0.100)"
molecule="O=C(CCl)Nc1ccc(Cl)cc1 [Compound 4Cl]" endpoint_result="1.788 (±0.140)"
molecule="COc1ccc(NC(=O)CCl)cc1 [Compound 4OCH3]" endpoint_result="1.247 (±0.122)"
molecule="O=C(CCl)Nc1ccccc1 [H]" endpoint_result="1.171 (±0.123)"

====

Assay: Lipophilicity by reversed-phase thin-layer chromatography (RPTLC, RP-18W/UV254 plates)
Assay type: physicochemical
Settings: acetone-water mobile phase, φ = 0.34 - 0.56 v/v, room temperature
In this section, each of the molecules is paired with its reported R M ^0 (chromatographic retention constant, intercept).
measure: R M ^0 (chromatographic retention constant, intercept)

structure_string=O=C(CCl)Nc1ccc(I)cc1 endpoint_result="1.963 (±0.143)"
structure_string=O=C(CCl)Nc1ccc(Cl)cc1 endpoint_result="1.636 (±0.139)"
structure_string=Cc1ccc(NC(=O)CCl)cc1 endpoint_result="1.370 (±0.097)"
structure_string=O=C(CCl)Nc1ccc(Br)cc1 endpoint_result="1.849 (±0.087)"
structure_string=N#Cc1cccc(NC(=O)CCl)c1 endpoint_result="1.186 (±0.101)"
structure_string=O=C(CCl)Nc1ccc(O)cc1 endpoint_result="0.763 (±0.030)"
structure_string=CC(=O)c1ccc(NC(=O)CCl)cc1 endpoint_result="1.118 (±0.077)"
structure_string=N#Cc1ccc(NC(=O)CCl)cc1 endpoint_result="1.074 (±0.117)"
structure_string=O=C(CCl)Nc1ccccc1 endpoint_result="1.106 (±0.132)"
structure_string=COc1ccc(NC(=O)CCl)cc1 endpoint_result="1.130 (±0.115)"
structure_string=O=C(CCl)Nc1ccc(F)cc1 endpoint_result="1.341 (±0.042)"
structure_string=O=C(CCl)Nc1cccc(Br)c1 endpoint_result="1.780 (±0.105)"
